Kindly supply the reported EC50 values for the records listed here.
- SYSTEM_NAME: Voltage-gated potassium channel, KQT; KCNQ2(Kv7.2)/KCNQ3(Kv7.3) (Homo sapiens, UniProt O43525+O43526)
- Sequence (O43526 whole entry): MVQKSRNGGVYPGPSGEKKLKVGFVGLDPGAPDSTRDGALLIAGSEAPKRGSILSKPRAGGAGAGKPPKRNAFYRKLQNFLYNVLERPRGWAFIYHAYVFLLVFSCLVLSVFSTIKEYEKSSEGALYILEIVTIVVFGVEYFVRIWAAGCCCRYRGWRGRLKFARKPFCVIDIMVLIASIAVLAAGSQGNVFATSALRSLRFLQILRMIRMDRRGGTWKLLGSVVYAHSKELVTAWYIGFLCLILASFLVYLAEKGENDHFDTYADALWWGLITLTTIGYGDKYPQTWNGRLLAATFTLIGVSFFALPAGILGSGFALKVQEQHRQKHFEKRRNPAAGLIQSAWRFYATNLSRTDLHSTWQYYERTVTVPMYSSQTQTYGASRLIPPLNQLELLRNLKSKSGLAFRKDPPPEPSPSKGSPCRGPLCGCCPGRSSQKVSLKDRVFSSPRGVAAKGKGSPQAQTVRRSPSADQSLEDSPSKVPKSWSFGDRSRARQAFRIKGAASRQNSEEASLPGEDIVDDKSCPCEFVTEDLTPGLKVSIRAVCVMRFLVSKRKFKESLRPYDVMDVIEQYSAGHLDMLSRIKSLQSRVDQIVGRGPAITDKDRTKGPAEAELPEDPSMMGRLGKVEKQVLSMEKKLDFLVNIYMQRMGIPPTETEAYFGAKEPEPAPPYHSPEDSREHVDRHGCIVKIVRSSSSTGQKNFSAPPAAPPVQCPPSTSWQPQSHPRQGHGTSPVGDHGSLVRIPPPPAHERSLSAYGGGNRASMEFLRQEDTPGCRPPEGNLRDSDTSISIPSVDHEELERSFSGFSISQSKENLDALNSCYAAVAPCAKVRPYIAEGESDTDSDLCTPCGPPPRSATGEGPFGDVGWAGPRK
- Sequence (O43525 whole entry): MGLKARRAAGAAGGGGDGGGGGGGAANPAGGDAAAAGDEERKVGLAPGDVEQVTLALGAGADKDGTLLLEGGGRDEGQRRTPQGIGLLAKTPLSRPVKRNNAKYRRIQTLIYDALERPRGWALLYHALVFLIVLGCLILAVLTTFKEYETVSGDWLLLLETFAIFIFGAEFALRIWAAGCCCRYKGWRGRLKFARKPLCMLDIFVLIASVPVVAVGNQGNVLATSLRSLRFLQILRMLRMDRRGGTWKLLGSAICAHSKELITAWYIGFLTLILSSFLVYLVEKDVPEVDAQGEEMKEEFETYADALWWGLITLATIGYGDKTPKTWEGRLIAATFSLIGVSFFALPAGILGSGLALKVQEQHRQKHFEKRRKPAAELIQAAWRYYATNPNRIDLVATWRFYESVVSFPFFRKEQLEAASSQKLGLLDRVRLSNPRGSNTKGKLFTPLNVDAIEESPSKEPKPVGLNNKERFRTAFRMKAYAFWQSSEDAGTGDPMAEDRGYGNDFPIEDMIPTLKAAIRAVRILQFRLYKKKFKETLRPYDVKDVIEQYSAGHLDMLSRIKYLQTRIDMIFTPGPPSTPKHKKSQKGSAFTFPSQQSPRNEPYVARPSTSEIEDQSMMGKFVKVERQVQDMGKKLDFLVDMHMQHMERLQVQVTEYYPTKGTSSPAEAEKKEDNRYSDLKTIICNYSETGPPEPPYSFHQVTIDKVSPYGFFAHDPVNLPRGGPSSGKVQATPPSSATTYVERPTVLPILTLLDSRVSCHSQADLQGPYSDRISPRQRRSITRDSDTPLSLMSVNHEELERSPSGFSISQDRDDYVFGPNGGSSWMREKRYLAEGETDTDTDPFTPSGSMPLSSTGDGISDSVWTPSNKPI
- ASSAY_DETAILS: Activation of KCNQ2/Q3

Q. Return EC50 (reported value) for this compound: CC(C)(C)CC(=O)Nc1nn2cccnc2c1-c1ccc(F)cc1
A. < 1000 nM

Q. State its EC50: Cc1cnc2c(Cc3ccc(F)cc3)c(NC(=O)CC3CCCC3)nn2c1
A. < 100 nM

Q. Recall and state the measured EC50 for CC(C)(C)CC(=O)Nc1nn2cccnc2c1-c1ccc(OC(F)(F)F)cc1 .
A. < 500 nM
